All values here come from ChEMBL document CHEMBL1201862.

- System: TK-10
- ASSAY METHOD TEXT: NCI tumour cell line growth inhibition, 48 h
Calls of active or inactive are those of the source. Cut-off read from the data, not from the text of the source: active = GI50 up to about 1.1 µM and inactive = higher.
PROPERTY MEASURED: GI50

Here's what some known entries look like.
COc1ccc(N2C(=O)CC(Cl)C2=O)cc1 (centres undefined); 18.8 µM (inactive)
CCCCc1c2c(nc3c1CCC/C3=C\c1ccccc1)C(=O)C(CN(C)C)CC2 (centres undefined); 15.7 µM (inactive)
CN1C2CCC1CN(CCOC(c1ccc(F)cc1)c1ccc(F)cc1)C2; > 100 µM (inactive)

API: the following record is the query input.
Provide only the value of recorded GI50 for Cc1cc(C)cc(Nc2nnc3n2S(=O)(=O)c2cc(C)c(Cl)cc2S3)c1
10.7 µM (inactive)

====

- Test system: PC-3
- ASSAY METHOD TEXT: NCI tumour cell line growth inhibition, 48 h
Active and inactive are the calls of the source. No stated cut-off is given here; in the data, active = GI50 up to about 1.1 µM and inactive = higher.
Outcomes you can answer with include only these: YES = active, NO = inactive

# count of solved cases: 6
C#C[C@@H](OC(=O)c1ccc([N+](=O)[O-])cc1)[C@@H]1C[C@H]2O[C@@H]([C@H](C/C=C/CC)OC(=O)c3ccc([N+](=O)[O-])cc3)C[C@H]2O1; NO
O=C(/C=C/C=C/c1ccccc1)c1ccc2c(c1)CCCC2; NO
O=C1C=C2CC[C@H]3[C@@H]4CC[C@H](OC(=O)c5cccc6cc7ccccc7nc56)[C@H]4CC[C@@H]3[C@H]2CC1; NO
COC(=O)C12Oc3ccc(-c4ccc5c(c4O)C(O)=C4C(=O)CC(C)C(O)C4(C(=O)OC)O5)c(O)c3C(O)=C1C(=O)CC(C)C2O (stereo not drawn); YES
COC(=O)CSc1nc2[nH]c(SC)c(C(N)=O)c2c(=O)n1-c1ccccc1; NO
c1ccc(C2=Nc3cccc4cccc(c34)N2)cc1; NO

# outcome recorded in this test, key = COC(=O)C(CSSC[C@H](N/C(C)=C/C(C)=O)C(=O)OC)N/C(C)=C/C(C)=O (stereo partly drawn)
NO

# outcome recorded in this test, key = O=C(O)CC(NC(=O)C(F)(F)F)C(=O)NC1Cc2ccccc2OC1=O (stereo not drawn)
NO

====

- Test system: HL-60
- ASSAY METHOD TEXT: NCI tumour cell line growth inhibition, 48 h
The source made the active and inactive calls. Cut-off read from the data, not from the text of the source: active = GI50 up to about 1.1 µM and inactive = higher.
PROPERTY MEASURED: GI50

NCc1cc(O)c(O)c(O)c1; 80.7 µM (inactive)
ClCCCN1CCCCC1CCl (centres undefined); 52.7 µM (inactive)
COc1ccc2nc3cc(Cl)ccc3c(NCCNC(=O)Cn3c(=O)n(C)c(=O)c4c3nc3c(c(=O)n(C)c(=O)n3C)[n+]4[O-])c2c1; > 100 µM (inactive)
C=CCc1cc(OC)c2c(c1)C(O)CC(c1ccc(OC)c(OC)c1)O2 (centres undefined); 24.9 µM (inactive)
C=C1CCCCCCCCCCC12SCCC2CCCCSC (centres undefined); 26.5 µM (inactive)
O=C(Nc1ccccc1)O/N=C(/CBr)c1ccccc1; 4.66 µM (inactive)
CC(C)(C)NC(=O)/C(=C\Sc1ccccc1)c1ccc2c(c1)OCO2; 18.7 µM (inactive)
CC(C)(C)CC(C)(C)c1cc2c(O)c(c1)Cc1cc(C(C)(C)CC(C)(C)C)cc(c1O)Cc1cc(C(C)(C)CC(C)(C)C)cc(c1O)Cc1cc(C(C)(C)CC(C)(C)C)cc(c1O)Cc1cc(C(C)(C)CC(C)(C)C)cc(c1O)Cc1cc(C(C)(C)CC(C)(C)C)cc(c1O)C2; > 100 µM (inactive)

API: the following record is the query input.
Provide only the value of recorded GI50 for CCCCCC/C=C/CCCCCCCc1cccc(O)c1C(=O)O
> 100 µM (inactive)

====

- System: RPMI-8226
- ASSAY METHOD TEXT: NCI tumour cell line growth inhibition, 48 h
Active and inactive are the calls of the source. Cut-off read from the data, not from the text of the source: active = GI50 up to about 1.1 µM and inactive = higher.
PROPERTY MEASURED: GI50

O=C(O)c1cc(S(=O)(=O)N/N=C\c2c3ccccc3[n+]([O-])c3ccccc23)ccc1O; 7.48 µM (inactive)
Cc1ccc(S(=O)(=O)OC2=C/C(=N\c3onc(C)c3C)c3ccccc3C2=O)cc1; 7.96 µM (inactive)
C1=C(c2ccccc2)SC=C(c2ccccc2)S1; 33.3 µM (inactive)

API: the following record is the query input.
Provide only the value of recorded GI50 for C/C(=N\NS(=O)(=O)c1ccc(C)cc1)C(CN1CCCCC1)C(c1ccccc1)c1c(O)c2ccccc2oc1=O (stereo unspecified)
> 100 µM (inactive)

====

- Test system: 786-0
- ASSAY METHOD TEXT: NCI tumour cell line growth inhibition, 48 h
Active and inactive are the calls of the source. No stated cut-off is given here; in the data, active = GI50 up to about 1.1 µM and inactive = higher.
Outcomes you can answer with include only these: active, inactive

# count of solved cases: 3
CC1(C)[C@H]2Cc3cc(-c4cc5c(cn4)[C@@H]4C[C@H]([C@@H]5[C@@H]5c6cc(-c7cc8c(cn7)[C@@H]7C[C@H](C8)C7(C)C)ncc6[C@@H]6C[C@H]5C6(C)C)C4(C)C)ncc3[C@@H]1C2; inactive
Cc1ccc(NC(=O)NC(=O)c2ccc([N+](=O)[O-])cc2[N+](=O)[O-])cc1Oc1ncc(Cl)cn1; active
COc1ccc2c(n1)Sc1nc3ccccc3nc1N2; inactive

# outcome recorded in this test, key = Cc1sc(/N=C/c2c[nH]c3ccccc23)c(C#N)c1C
inactive

====

- Test system: CCRF-CEM
- ASSAY METHOD TEXT: NCI tumour cell line growth inhibition, 48 h
The source made the active and inactive calls. Rule as the data show it: active = GI50 up to about 1.1 µM and inactive = higher.
Reported GI50 values for a set of compounds

Here's what some known entries look like.
c1ccc(COCC23CCN(Cc4ccccc4)C(CC(OCc4ccccc4)C2)S3)cc1 (stereo unspecified); 56.8 µM (inactive)
CC(C)[Si]1(C(C)C)OCC2OC(n3ccc(=O)[nH]c3=O)C([Se]c3ccccc3)C2O[Si](C(C)C)(C(C)C)O1 (stereo unspecified); 8.91 µM (inactive)
CCOC(=O)C1=C(c2ccccc2)N(C(C)=O)Cc2ccccc21; 16.4 µM (inactive)
Cn1c2ccccc2c(=NNc2ccc(S(=O)(=O)N=C(N)N)cc2)c2ccccc21; 6.68 µM (inactive)
Cc1ccccc1/N=N/c1ccc(/N=N/c2c(O)ccc3ccccc23)c(C)c1; > 10 µM (inactive)
CCOC1=C2N=C(Cc3ccccc3F)N=C2C(=O)c2ccccc21; > 100 µM (inactive)
COc1cc2c(cc1OC)[C@@H]1[C@H](C#N)C(=O)C(C)(C)N1CC2; > 100 µM (inactive)
CC(NNC(=O)c1ccncc1)c1ccc(F)cc1 (stereo unspecified); > 100 µM (inactive)

Provide only the value of recorded GI50 for NCC(=O)NC1(c2cc3ccccc3s2)CCCCC1
22 µM (inactive)

Provide only the value of recorded GI50 for O=C(O)CCSc1ncnc2[nH]cnc12
> 100 µM (inactive)

Provide only the value of recorded GI50 for O=C1NC2=NN=C(c3ccc(Br)cc3)CN2NC12c1ccccc1-c1ccccc12
3.05 µM (inactive)

====

- System: HCT-15
- ASSAY METHOD TEXT: NCI tumour cell line growth inhibition, 48 h
The class of a record is decided solely by its measured GI50; consult lo: < 5 µM; med: ≥ 5 µM and < 30 µM; hi: ≥ 30 µM

# count of solved cases: 5
Clc1ccc(C2=NN=C3C(c4ccccc4)=Nc4ccccc4N3C2)cc1; lo
CCSc1nc(N2CCCC2)s[s+]1.[O-][Cl+3]([O-])([O-])[O-]; med
CN(C)CCNC(=O)c1cccc2nc3cccc(F)c3nc12; lo
On1c(-c2ccccc2)c(-c2c(-c3ccccc3)n(O)c3ccccc23)c2ccccc21; hi
Oc1cc(Cl)cc2cc(Cl)cnc12; lo

Lab note: which band did Cc1c(C)c(C)c(CSC(=N)N)c(C)c1C land in?
med

Lab note: which band did C1=C(c2ccccc2)SC=C(c2ccccc2)S1 land in?
med

Lab note: which band did CC1(C)[C@H]2Cc3cc(-c4cc5c(cn4)[C@@H]4C[C@H]([C@@H]5[C@@H]5c6cc(-c7cc8c(cn7)[C@@H]7C[C@H](C8)C7(C)C)ncc6[C@@H]6C[C@H]5C6(C)C)C4(C)C)ncc3[C@@H]1C2 land in?
hi

====

- Test system: SN12C
- ASSAY METHOD TEXT: NCI tumour cell line growth inhibition, 48 h
The source made the active and inactive calls. Cut-off read from the data, not from the text of the source: active = GI50 up to about 1.1 µM and inactive = higher.
Reported GI50 values for a set of molecules

Here's what some known entries look like.
CC(C)(C)OC(=O)N/N=C(/N)c1ccccc1; > 100 µM (inactive)
Cc1cc2c(cc1C)C(=O)/C(=C/c1ccccc1C(=O)O)C2; 45.2 µM (inactive)
CC(C)(C)[Si](C)(C)Oc1ccc(C2CNC(=O)C23CCC(=O)N3Cc2ccccc2)cc1 (stereo not given); 15 µM (inactive)
O=C(NC(=O)c1ccccc1)OC(c1ccccc1)C1CO1 (stereo not given); > 100 µM (inactive)
COc1cc2c(cc1OC)[C@@H]1[C@H](C#N)C(=O)C(C)(C)N1CC2; > 100 µM (inactive)

Provide only the value of recorded GI50 for COc1ccc2c(n1)Sc1nc3ccccc3nc1N2
21 µM (inactive)

Provide only the value of recorded GI50 for Cc1cc(C)nc(NS(=O)(=O)c2ccc(Nc3c4ccccc4nc4c(C(=O)Nc5ccc(S(=O)(=O)Nc6cc(C)on6)cc5)ccc(Cl)c34)cc2)n1
21.3 µM (inactive)

Provide only the value of recorded GI50 for Cc1ccc(S(=O)(=O)N[C@@H](Cc2ccccc2)C(=O)CCl)cc1
12.7 µM (inactive)

Provide only the value of recorded GI50 for Cc1ccc(S(=O)(=O)N/N=C/c2oc(-c3cccc([N+](=O)[O-])c3)c(-c3cccc([N+](=O)[O-])c3)c2[N+](=O)[O-])cc1
61.4 µM (inactive)

Provide only the value of recorded GI50 for CS(=O)(=O)Sc1ccc(Cl)cc1
3.69 µM (inactive)

Provide only the value of recorded GI50 for NC1c2ccccc2Nc2ccccc21
4.53 µM (inactive)

Provide only the value of recorded GI50 for C/C(=N\Nc1nc2ccccc2s1)c1cccc[n+]1[O-]
48.9 µM (inactive)

Provide only the value of recorded GI50 for COC(=O)CSc1nc2[nH]c(SC)c(C(N)=O)c2c(=O)n1-c1ccccc1
> 10 µM (inactive)

Provide only the value of recorded GI50 for Cc1ccc2c3c1O[C@H]1c4[nH]c5ccccc5c4C[C@@]4(O)[C@@H](C2)N(C)CC[C@]314
18.2 µM (inactive)

Provide only the value of recorded GI50 for CC(=O)OCC1OC(OC2CC3C(C)(C)C(O)CC[C@]3(C)C3CCC45CC4(CC[C@H]5C(C)CC(O)C4OC4(C)C)[C@]23C)C(O)C(O)C1O (stereo not given in full)
8.24 µM (inactive)

Provide only the value of recorded GI50 for COc1ccc2c(O)c(Oc3ccc(Cl)cc3)c(=O)oc2c1
> 100 µM (inactive)

Provide only the value of recorded GI50 for CCOC(=O)/C(=C\NCC(OCC)OCC)c1nc2ccccc2[nH]1
39.2 µM (inactive)
